A short record of IC50 observed with CD38 cyclase (Homo sapiens, UniProt P28907) follows.
ASSAY READOUT: IC50 (µM)

MOLECULE	ASSAY READOUT	READING UNIT	CENSORING QUALIFIER	REPORTED VALUE
O=C1NC(=S)S/C1=C\c1ccc(OC(F)(F)F)cc1 [Compound 22]	IC50	µM	=	4.81
Cc1ccc(-c2ccc(/C=C3\SC(=S)N(C)C3=O)cc2)cc1 [Compound 43]	IC50	µM	=	48.2
O=C1NC(=S)S/C1=C\c1ccc2c(c1)OCCO2 [Compound 28]	IC50	µM	>	100

---

EXPERIMENTAL SYSTEM: CD38 cyclase (Homo sapiens)
Sequence (P28907 1-300): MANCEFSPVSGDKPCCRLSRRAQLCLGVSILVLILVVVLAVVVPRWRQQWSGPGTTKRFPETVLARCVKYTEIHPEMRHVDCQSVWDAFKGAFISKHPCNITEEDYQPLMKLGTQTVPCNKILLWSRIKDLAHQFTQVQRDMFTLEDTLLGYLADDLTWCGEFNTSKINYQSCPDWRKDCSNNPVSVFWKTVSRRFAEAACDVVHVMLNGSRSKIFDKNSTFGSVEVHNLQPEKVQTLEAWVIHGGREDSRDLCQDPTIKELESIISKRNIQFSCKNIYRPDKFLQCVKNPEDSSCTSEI
METHOD: CD38 cyclase activity, fluorometric assay with NGD+ as substrate
Format: biochemical
EXPERIMENTAL PARAMETERS: read-out: % cyclase activity remaining (50 μM)

COMPOUND	remaining activity at 50 µM (%)
COc1ccc(-c2ccc(/C=C3\SC(=S)NC3=O)cc2)cc1 [Compound 45]	55.7
O=C1NC(=S)S/C1=C\c1ccc(-c2ccc(C(F)(F)F)cc2)cc1 [Compound 32]	64.5
Cc1ccc(-c2ccc(/C=C3\SC(=S)N(C)C3=O)cc2)cc1 [Compound 43]	29
O=C1NC(=S)S/C1=C\c1ccc2oc3ccccc3c2c1 [Compound 26]	77.3

---

Record: IC50 reported on CD38 cyclase (Homo sapiens).

SMILES ENTRY	IC50
O=C1NC(=S)S/C1=C\c1cc2cc3c(cc2nc1Cl)OCO3	20.9 µM
Cc1ccc(-c2cccc(/C=C3\SC(=S)NC3=O)c2)cc1	> 100 µM
O=C1NC(=S)S/C1=C\c1ccccc1OC(F)(F)F	> 100 µM
Cc1ccc(-c2ccc(/C=C3\SC(=O)NC3=O)cc2)cc1	> 100 µM
O=C1NC(=S)S/C1=C\c1ccc2ncccc2c1	56 µM
O=C1NC(=S)S/C1=C\c1ccc(-c2cccc(C(F)(F)F)c2)o1	> 100 µM
O=C1NC(=S)S/C1=C\c1ccc2c(c1)-c1ccccc1C2	> 100 µM
O=C1NC(=S)S/C1=C\c1ccc(OCc2ccccc2)cc1	> 100 µM
O=C1NC(=S)S/C1=C\c1ccccc1C(F)(F)F	> 100 µM
COc1ccc(-c2ccc(/C=C3\SC(=S)NC3=O)cc2)cc1	53.8 µM

---

EXPERIMENTAL SYSTEM: CD38 cyclase (Homo sapiens, UniProt P28907)
Sequence (P28907 1-300): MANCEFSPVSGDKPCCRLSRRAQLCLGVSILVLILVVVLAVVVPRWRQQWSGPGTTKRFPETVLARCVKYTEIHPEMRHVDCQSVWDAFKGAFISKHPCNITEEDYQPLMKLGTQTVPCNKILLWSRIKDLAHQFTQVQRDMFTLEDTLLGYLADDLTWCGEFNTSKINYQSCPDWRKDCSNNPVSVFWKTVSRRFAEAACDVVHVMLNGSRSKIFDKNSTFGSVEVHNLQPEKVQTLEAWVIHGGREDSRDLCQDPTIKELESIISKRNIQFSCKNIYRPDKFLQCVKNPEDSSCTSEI
METHOD: CD38 cyclase activity, fluorometric assay with NGD+ as substrate
Assay type: biochemical
EXPERIMENTAL PARAMETERS: read-out: % cyclase activity remaining (50 μM)
The entries below come with measured remaining activity at 50 µM values attached.
ASSAY READOUT: remaining activity at 50 µM (%)

COMPOUND	EXPERIMENTAL SYSTEM	REPORTED VALUE
COc1ccc2cc(/C=C3\SC(=S)NC3=O)ccc2c1 [Compound 36]	CD38 cyclase (Homo sapiens, UniProt P28907)	90
O=C1NC(=S)S/C1=C\c1ccccc1OC(F)(F)F [Compound 42]	CD38 cyclase (Homo sapiens, UniProt P28907)	87.1
COc1ccc(-c2ccc(/C=C3\SC(=S)N(C)C3=O)cc2)cc1 [Compound 24]	CD38 cyclase (Homo sapiens, UniProt P28907)	90.1
O=C1NC(=S)S/C1=C\c1ccc(-c2ccccc2)cc1 [Compound 40]	CD38 cyclase (Homo sapiens, UniProt P28907)	22.1
O=C1NC(=S)S/C1=C\c1ccc(OC(F)(F)F)cc1 [Compound 22]	CD38 cyclase (Homo sapiens, UniProt P28907)	21.7
O=C1NC(=S)S/C1=C\c1ccc(-c2ccccn2)cc1 [Compound 34]	CD38 cyclase (Homo sapiens, UniProt P28907)	66.3
O=C1NC(=S)S/C1=C\c1ccc(Oc2ccccc2)cc1 [Compound 27]	CD38 cyclase (Homo sapiens, UniProt P28907)	88.2
CS(=O)(=O)c1ccc(/C=C2\SC(=S)NC2=O)cc1 [Compound 21]	CD38 cyclase (Homo sapiens, UniProt P28907)	22.1
COc1cc(/C=C2\SC(=S)NC2=O)cc(OC)c1OC [Compound 39]	CD38 cyclase (Homo sapiens, UniProt P28907)	64.1
O=C1NC(=S)S/C1=C\c1ccc(C(F)(F)F)cc1 [Compound 23]	CD38 cyclase (Homo sapiens, UniProt P28907)	9.3
O=C1NC(=S)S/C1=C\c1ccc2c(c1)-c1ccccc1C2 [Compound 31]	CD38 cyclase (Homo sapiens, UniProt P28907)	96.3
Cc1ccc(-c2ccc(/C=C3\SC(=O)NC3=O)cc2)cc1 [Compound 37]	CD38 cyclase (Homo sapiens, UniProt P28907)	84.5
O=C1NC(=S)S/C1=C\c1ccc(OCc2ccccc2)cc1 [Compound 38]	CD38 cyclase (Homo sapiens, UniProt P28907)	84.5
Cc1ccc(-c2cccc(/C=C3\SC(=S)NC3=O)c2)cc1 [Compound 29]	CD38 cyclase (Homo sapiens, UniProt P28907)	98.6
O=C1NC(=S)S/C1=C\c1ccc2c(c1)OCCO2 [Compound 28]	CD38 cyclase (Homo sapiens, UniProt P28907)	93.9
Cc1ccc(-c2ccc(/C=C3\SC(=S)NC3=O)cc2)cc1 [Compound 33]	CD38 cyclase (Homo sapiens, UniProt P28907)	39.4
O=C1NC(=S)S/C1=C\c1ccc(-c2cccc(C(F)(F)F)c2)o1 [Compound 35]	CD38 cyclase (Homo sapiens, UniProt P28907)	81.7
O=C1NC(=S)S/C1=C\c1cc2cc3c(cc2nc1Cl)OCO3 [Compound 30]	CD38 cyclase (Homo sapiens, UniProt P28907)	70.3
O=C1NC(=S)S/C1=C\c1ccccc1C(F)(F)F [Compound 41]	CD38 cyclase (Homo sapiens, UniProt P28907)	81.6
O=C1NC(=S)S/C1=C\c1ccc2ncccc2c1 [Compound 25]	CD38 cyclase (Homo sapiens, UniProt P28907)	68.3
